Biological target: IDH1 R132H enzyme (Homo sapiens (Human), UniProt O75874, R132H)
Sequence (O75874 whole entry R132H): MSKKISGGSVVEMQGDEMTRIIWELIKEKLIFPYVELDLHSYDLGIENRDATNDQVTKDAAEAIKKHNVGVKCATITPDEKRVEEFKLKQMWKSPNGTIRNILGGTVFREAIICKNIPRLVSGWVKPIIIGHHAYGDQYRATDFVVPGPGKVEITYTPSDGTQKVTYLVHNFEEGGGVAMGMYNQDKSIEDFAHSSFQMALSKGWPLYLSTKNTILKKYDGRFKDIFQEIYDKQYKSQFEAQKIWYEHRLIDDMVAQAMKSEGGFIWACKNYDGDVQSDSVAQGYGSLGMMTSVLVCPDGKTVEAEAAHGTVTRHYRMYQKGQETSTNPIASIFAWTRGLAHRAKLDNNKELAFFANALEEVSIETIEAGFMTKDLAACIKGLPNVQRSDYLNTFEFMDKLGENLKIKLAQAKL
Test: Mutant IDH1 R132H biochemical assay
Details: NADPH consumption, luminescent readout; 1.5 nM enzyme, 1 μM NADPH, 250 μM α-KG, 30 minutes, 32° C.
Procedure: Mutant IDH1 R132H Biochemical Assay mIDH1 catalyzes the NADPH-dependent reduction of alpha-ketoglutarate (a-KG) to (2R)-2-hydroxyglutarate (2-HG). NADPH consumption was measured by luminescent readout. […] The reaction was incubated for 30 minutes, then 40 μL of detection mix (0.75 μg/ml Luciferase, 0.02 U/ml Oxidoreductase, 4 μg/mL FMN, 2 μL/ml decanal/ethanol, 50 mM Tris pH 7.5, 0.5% Glycerin, 0.01% Tween-20, 0.05% BSA) was added. […] The decrease in luminescence is proportional to mIDH1 activity. […]
metric: IC50 (nM)
Give bare numbers, in nM.

For the 3 compounds below, give their IC50 values.
1. COc1cc2c(cc1CC(=O)O)nc(Nc1ccc(C(C)C)cc1)n2[C@@H]1C[C@H](C)CC[C@H]1C(C)C
2. COC(=O)Cc1ccc2c(c1)nc(Nc1ccc(C(C)C)cc1)n2[C@@H]1C[C@H](C)CC[C@H]1C(C)C
3. COC(=O)CCc1ccc2c(c1)nc(Nc1ccc(OC(F)(F)F)cc1)n2[C@@H]1C[C@H](C)CC[C@H]1C(C)C

1. 12
2. 80
3. 95

For the 5 compounds below, give their IC50 values.
1. COc1cc2c(cc1CCC(=O)O)nc(Nc1ccc(OC(F)(F)F)cc1)n2[C@@H]1C[C@H](C)CC[C@H]1C(C)C
2. COC(=O)c1cc2nc(Nc3ccc(OC(C)C)cc3)n([C@@H]3C[C@H](C)CC[C@H]3C(C)C)c2cc1OC
3. CC(C)c1ccc(Nc2nc3cc(CC(=O)O)ccc3n2[C@@H]2C[C@H](C)CC[C@H]2C(C)C)cc1
4. COC(=O)CCc1cc2nc(Nc3ccc(C(C)C)cc3)n([C@@H]3C[C@H](C)CC[C@H]3C(C)C)c2cc1OC
5. CC(C)[C@@H]1CC[C@@H](C)C[C@H]1n1c(Nc2ccc(OC(F)(F)F)cc2)nc2cc(CCC(=O)O)ccc21

15
280
11
180
15

For the 6 compounds below, give their IC50 values.
1. COC(=O)c1ccc2c(c1)nc(Nc1ccc(OC(F)(F)F)cc1)n2[C@@H]1C[C@H](C)CC[C@H]1C(C)C
2. CC(C)Oc1ccc(Nc2nc3cc(CCC(=O)O)ccc3n2[C@@H]2C[C@H](C)CC[C@H]2C(C)C)cc1
3. Cc1cc2c(cc1CC(=O)O)nc(Nc1ccc(C(C)C)cc1)n2[C@@H]1C[C@H](C)CC[C@H]1C(C)C
4. COC(=O)c1ccc2c(c1)nc(Nc1ccc(OC(C)C)cc1)n2[C@@H]1C[C@H](C)CC[C@H]1C(C)C
5. COC(=O)Cc1ccc2c(c1)nc(Nc1ccc(OC(F)(F)F)cc1)n2[C@@H]1C[C@H](C)CC[C@H]1C(C)C
6. COC(=O)CCc1cc2nc(Nc3ccc(OC(C)C)cc3)n([C@@H]3C[C@H](C)CC[C@H]3C(C)C)c2cc1OC

120
12
8.3
200
120
620

====

Please provide measured IC50 for the entries that follow.
molecular target: Mutant IDH1 (LN229 R132H cells) (Homo sapiens (Human), UniProt O75874, R132H); test: Mutant IDH1 cellular assay (2-HG levels in medium of LN229 R132H cells); conditions: 2-HG production in LN229 R132H cells, 24 hours incubation, fluorescence readout
Give bare numbers, in nM.

Worked set:
COc1cc2c(cc1C(=O)O)nc(Nc1ccc(OC(F)(F)F)cc1)n2[C@@H]1C[C@H](C)CC[C@H]1C(C)C = 38
COc1cc2c(cc1C(=O)O)nc(Nc1ccc(OC(C)C)cc1)n2[C@@H]1C[C@H](C)CC[C@H]1C(C)C = 84

Shift focus to the following entry.
Query (compound): COc1cc2c(cc1C(=O)O)nc(Nc1ccc(C(C)C)cc1)n2[C@@H]1C[C@H](C)CC[C@H]1C(C)C ; field requested: IC50
40
